# System Under Test: pool of RNAs from spot 2+
# Procedure Text: Competitive binding assay against 21-FL
# Measurement Context: competition with 10 nM 21-FL
Entries and their pKd
pKd here is simply -log10 of the concentration when that concentration is written in mol/L.

Note down pKd recorded for NC[C@H]1O[C@H](O[C@H]2[C@H](O)[C@@H](O[C@H]3O[C@H](CO)[C@@H](O)[C@H](N)[C@H]3O)[C@H](N)C[C@@H]2N)[C@H](N)[C@@H](O)[C@@H]1O
7.92

Note down pKd recorded for C#CCCCC(=O)NC[C@@H]1O[C@@H](O[C@H]2[C@H](O)[C@@H](O[C@@H]3O[C@@H](CO)[C@H](O)[C@@H](N)[C@@H]3O)[C@H](N)C[C@@H]2N)[C@@H](O)[C@H](O)[C@H]1O [Compound 21, 6′-N-5-hexynoate kanamycin A]
7.92

Note down pKd recorded for NC[C@H]1O[C@H](O[C@H]2[C@H](O)[C@@H](O[C@H]3O[C@H](CO)[C@@H](O)[C@H](N)[C@H]3O)[C@H](N)C[C@@H]2N)[C@H](N)C[C@@H]1O
7.07

Note down pKd recorded for NC[C@H]1O[C@H](O[C@H]2[C@H](O)[C@@H](O[C@H]3O[C@H](CO)[C@@H](O)[C@H](N)[C@H]3O)[C@H](N)C[C@@H]2N)[C@H](O)[C@@H](O)[C@@H]1O
8.05
